Provide the reported growth inhibition of each item.
TEST_METHOD_NOTES: NCI Yeast Anticancer Drug Screen. Data for the mgt1 strain (AID 153)
STATED_CONDITIONS: S. cerevisiae mgt1 mutant growth inhibition; at 1.2 µM; hits give high values
About 79,000 compounds went through this panel and 15% of them were active in at least one assay; those are over-represented in the sample as a whole.
Give bare numbers, in %.

Sample answers from the record:
>>> value_measured("Oc1ccc2c(c1)C(O)CCCC2 (stereo not drawn)")
-2
>>> value_measured("Oc1[nH]c2ccccc2c1N=NC(=S)N1CCCCC1")
0
>>> value_measured("Cc1ccc2c3ccc4c(c3n(C)c2c1)C(=O)C=CC4=O")
20
>>> value_measured("CCOC1(c2cccc([N+](=O)[O-])c2)c2ccccc2Oc2ccccc21")
0
>>> value_measured("CN(CCN(C)Cc1ccccc1)Cc1ccccc1")
-13

Record growth inhibition for all entries; do not skip any.
1. COc1cc(/C=N/Nc2nnc3c4ccccc4c4ncccc4c3n2)cc(OC)c1OC
2. COC(=O)Oc1cc(Cl)c(Cl)cc1Cl
3. CN1C(=O)c2ccc3ccccc3c2C1=O
4. O=C(NCCCl)Sc1ccc(Cl)cc1
5. Nc1n[n+]([O-])c2ccc(Cl)cc2[n+]1[O-]

1: 0; 2: -1; 3: 1; 4: 1; 5: 1

Record growth inhibition for all entries; do not skip any.
1. C[C@@](O)(/C=C/[C@H]1CC=CC(=O)O1)[C@@H](C[C@@H](O)\C=C/C=C\C=C\CO)OP(=O)(O)O
2. O=c1[nH]c2ccc(Cl)cc2o1
3. COC1=C(OC)C(=O)C(Sc2ccc3ccccc3c2)=CC1=O
4. O=C1C=C(Cl)C(=O)C(c2ccc(Cl)cc2)=C1
5. COC(=O)C1(C)CCc2c(ccc3ccccc23)C1=O (stereo not drawn)
6. COC(=O)C1=C(C(=O)OC)C(C(=O)OC)C(C(=O)OC)C(C(=O)OC)(C(=O)OC)C(C(=O)OC)=C1C(=O)OC (stereo not drawn)
7. Cc1c2ccnc(C(=O)NCCN(C)C)c2cc2c3cc(O)ccc3n(C)c12
8. CCCC/C=C/C(C)(C(=O)OCC)C(=O)OCC

1: 33; 2: -45; 3: -46; 4: 2; 5: -1; 6: -18; 7: 0; 8: -4

Record growth inhibition for all entries; do not skip any.
1. CC(C)CCCC(C)C1CCC2C3CCC4=CC(=O)/C(=C\O)CC4(C)C3CCC12C (stereo not drawn)
2. COc1cc([C@@H]2c3cc4c(cc3[C@@H](Nc3ccc(NC(=O)c5cc([N+](=O)[O-])cn5C)cc3)[C@H]3COC(=O)[C@H]23)OCO4)cc(OC)c1O
3. O=C(O)c1cc2ccccc2c2c1C(=O)c1ccccc1-2

[-1, -3, 11]

Record growth inhibition for all entries; do not skip any.
1. CCc1c(Cl)c(C)cc(O)c1Cl
2. CCOC1Oc2ccccc2-c2nc(N)ncc21 (stereo not drawn)

1: 19; 2: -2
